# assay-explanation: rescue of L929 cells from zVAD death – primary screen (AID 1377);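 further: 0% = zVAD with DMSO and 100% = DMSO alone without zVAD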
# recorded-conditions: L929 zVAD necroptosis rescue, ATP luminescence, 24 h, at 10 µM, hits give high values; with zVAD 60 µM unless noted
Among all 220,000 compounds or so, about 830 (0.38%) were called active. The full list was thinned out, with actives kept by preference.
assay-readout: viability rescue

{"molecule": "CCOC(=O)N1CCN(C(=O)CSc2ccc(Cl)cc2)CC1", "assay-readout": "viability rescue", "recorded-value": "-0.42% [with zVAD 20 µM] (inactive)"}

Provide only the value of recorded viability rescue for CCc1cc2c(=O)c(-c3nc4ccccc4n3C)c(CCCC(=O)O)oc2cc1OC(=O)C(C)(C)C
3.54% (inactive)

Please indicate viability rescue recorded for COc1ccc(/C(N)=N/OC(=O)Cc2ccccc2)cc1
0.52% (inactive)

Give the measured viability rescue for O=C1NC(c2ccccc2)=NC1(Nc1ccccn1)C(F)(F)F (centres undefined)
1.82% (inactive)

Check the records and state viability rescue for O=C(CSc1ccc([N+](=O)[O-])cn1)Nc1ccc(N2CCOCC2)c(Cl)c1
80.2% (active)

Look up and report measured viability rescue for this entry: CCCn1c(SCC(=O)Nc2cccc(C(=O)OCC)c2)nnc1-c1ccoc1C
-0.07% [with zVAD 20 µM] (inactive)

Fill in viability rescue for record CCOC(=O)C1(Cc2ccc(Cl)cc2)CCN(C(=O)C2=NNC(=O)CC2)CC1
-0.11% (inactive)

###

# assay-explanation: rescue of L929 cells from zVAD death – primary screen (AID 1377);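 further: 0% = zVAD with DMSO and 100% = DMSO alone without zVAD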
# recorded-conditions: L929 zVAD necroptosis rescue, ATP luminescence, 24 h, at 10 µM; with zVAD 60 µM unless noted
Hit rate of the full screen: of about 220,000 compounds, about 830 (0.38%) were called active.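 The calls were made as follows: active = activation, scaled between plate controls, above about 75% (limit read from the data); inactive = activation under that limit.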 This excerpt belongs to a sample that is enriched for actives.
Response enum: active, inactive

Examples from the recorded data:
{"molecule": "CCC(C)Sc1nnc(-c2c[nH]c3ccccc23)n1CCOC (stereo unspecified)", "class-assignment": "inactive"}
{"molecule": "COc1cc(Cl)c(C)cc1NC(=O)COC(=O)c1cc(SC)ccc1Cl", "class-assignment": "inactive"}
{"molecule": "NC1=NC[C@@H](Cc2ccc(O)cc2)N1CC1CCCCC1", "class-assignment": "inactive"}
{"molecule": "Cc1ccc(S(=O)(=O)N(C)CC(=O)OCC(=O)Nc2ccccc2)cc1", "class-assignment": "inactive"}
{"molecule": "CCN(CC)S(=O)(=O)c1ccc(NC(=O)c2cccnc2Cl)c(NC(=O)c2cccnc2Cl)c1", "class-assignment": "active"}

Hi, sorry to bother you, what did the test record for O=C(Nc1cccc2c1N(C(=O)c1ccco1)CCC2)c1ccco1 ?
inactive

Which outcome was entered for the molecule COc1c(N2CCN(C(=S)Nc3ccccc3F)C(C)C2)c(F)cc2c(=O)c(C(=O)O)cn(C3CC3)c12 (stereo unspecified) in this test?
inactive

###

# assay-explanation: rescue of L929 cells from zVAD death – primary screen (AID 1377);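 further: 0% = zVAD with DMSO and 100% = DMSO alone without zVAD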
# recorded-conditions: L929 zVAD necroptosis rescue, ATP luminescence, 24 h, at 10 µM; with zVAD 60 µM unless noted
In all, about 220,000 compounds went through this assay and about 830 (0.38%) were called active.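 Rule for the calls: active = activation, scaled between plate controls, above about 75% (limit read from the data); inactive = activation under that limit.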 The sample holds actives, similar compounds and a random draw of the others, so the mix is not that of the screen.
Allowed answers: yes = active, no = inactive

{"molecule": "Cc1ccc(NC(=O)NC(=O)N(C2CCCCC2)S(=O)(=O)c2ccccc2)cc1", "class-assignment": "no"}

// outcome(item) with item = Cc1[nH]c(=O)c(C(=O)/C=C/c2ccccc2)c2c1CCCC2
yes

Identify the outcome logged in this assay for the molecule shown: O=C(/C=C/c1ccccc1)c1ccccc1O
no

Returns: the outcome recorded for Cn1cccc1C(=O)Nc1nccs1 in this assay.
no

###

# assay-explanation: rescue of L929 cells from zVAD death – primary screen (AID 1377);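 further: 0% = zVAD with DMSO and 100% = DMSO alone without zVAD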
# recorded-conditions: L929 zVAD necroptosis rescue, ATP luminescence, 24 h, at 10 µM, hits give high values; with zVAD 60 µM unless noted
About 830 (0.38%) of roughly 220,000 compounds were called active. The sample holds actives, similar compounds and a random draw of the others, so the mix is not that of the screen.
assay-readout: viability rescue (%)
Quick reminder: number only, in %, skip the unit.

The examples below pair each entry with its known result.
{"compound": "COc1ccc(-n2cnc3cc(NCc4ccco4)ccc32)cc1", "unit-of-measurement": "%", "viability rescue": 79.9}
{"compound": "O=C(CC1SCCNC1=O)Nc1ccc(Cl)cc1 (centres undefined)", "unit-of-measurement": "%", "viability rescue": 2.38}
{"compound": "COc1cc(/C=N\\Nc2nc(-c3cccs3)c(NC(C)=O)s2)ccc1O", "unit-of-measurement": "%", "viability rescue": 2.98}

Identify measured viability rescue corresponding to CCOC(=O)C(=O)C1C(=O)Nc2ccccc21 (centres undefined)
-0.07

Supply recorded viability rescue for CC(NC(=O)Nc1ccc2c(c1)OCO2)c1ccncc1 (centres undefined) here.
1.29

Write down viability rescue measured for item O=C(Nc1cccc(-c2nc3ccccc3[nH]2)c1)c1ccc(C(=O)Nc2cccc(-c3nc4ccccc4[nH]3)c2)cc1
0.11

Check the records and state viability rescue for NC(=O)C[n+]1cccc(C(N)=O)c1
1.24

Look up viability rescue of CCNc1nc(NCC)nc(N/N=C/c2ccc(O)c(OC)c2)n1 and report it.
0.27

// fetch viability rescue given entry CC(=O)Nc1cccc(C(=O)Nc2nc(C)cs2)c1
-1.49

Return viability rescue for the following compound: CC(C)NC(=S)NN=C1CCCCCCCCCCC1
0.38

Give the value of viability rescue reported for the following: COc1ccc(CN2C(=O)C(C)S/C2=N/N=C/c2ccco2)cc1 (centres undefined)
0.28

Using the record for Cc1cccc(NC(=O)Nc2ccc3c(c2)OCO3)n1 , state its measured viability rescue.
75.5

Specify reported viability rescue for the compound shown: Cc1cc(NC(=O)Nc2ccc(Cl)cc2)n(-c2ccccc2)n1
22.9

Note viability rescue for the compound shown: Cc1csc(NC(=O)Nc2ccccc2[N+](=O)[O-])n1
0.75

###

# assay-explanation: rescue of L929 cells from zVAD death – primary screen (AID 1377);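 further: 0% = zVAD with DMSO and 100% = DMSO alone without zVAD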
# recorded-conditions: L929 zVAD necroptosis rescue, ATP luminescence, 24 h, at 10 µM, hits give high values; with zVAD 60 µM unless noted
The whole screen tested about 220,000 compounds, of which about 830 (0.38%) were called active. The sample holds actives, similar compounds and a random draw of the others, so the mix is not that of the screen.
assay-readout: viability rescue

Worked cases, answers included:
{"compound": "Cc1cc(C(=O)N2CCC(C(=O)O)CC2)c(C(F)(F)F)o1", "viability rescue": "-0.1% (inactive)"}
{"compound": "CC(C)n1cnc2c(Nc3cccc(Cl)c3)nc(N(CCO)CCCO)nc21", "viability rescue": "20.9% (inactive)"}
{"compound": "O=C(Nc1ccc(Cl)cn1)c1cnn2cccnc12", "viability rescue": "-0.65% (inactive)"}
{"compound": "CC(C)C(=O)Nc1ccc2c3c(cccc13)CC2", "viability rescue": "1.59% [with zVAD 20 µM] (inactive)"}
{"compound": "COc1cc2c(cc1O)[C@H](Cc1ccc(Oc3cc(C[C@@H]4NCCc5cc(OC)c(O)cc54)ccc3O)cc1)NCC2", "viability rescue": "5.53% (inactive)"}

Read off the recorded viability rescue for CC1CCCCC1NC(=O)CO/N=C/c1ccc(OC(F)F)cc1 (configuration not stated)
0.48% (inactive)

Give a short answer stating reported viability rescue for COc1ccccc1NC(=O)CSc1nnc(-c2ccoc2C)n1CCc1ccccc1 .
-0.28% [with zVAD 20 µM] (inactive)

###

# assay-explanation: rescue of L929 cells from zVAD death – primary screen (AID 1377);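 further: 0% = zVAD with DMSO and 100% = DMSO alone without zVAD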
# recorded-conditions: L929 zVAD necroptosis rescue, ATP luminescence, 24 h, at 10 µM, hits give high values; with zVAD 60 µM unless noted
The whole screen tested about 220,000 compounds, of which about 830 (0.38%) were called active. Many of the other results were omitted from the sample, so actives are more common in it than they were.
# maps each entry to its viability rescue

Completed entries (count: 3):
{"smiles-str": "Cc1[nH]c2ccccc2c1SCC(=O)Nc1nccs1", "recorded-value": "1% (inactive)"}
{"smiles-str": "Cc1cccc(-n2nc3c(c2NC(=O)c2ccc(Br)o2)CSC3)c1C", "recorded-value": "0.18% [with zVAD 20 µM] (inactive)"}
{"smiles-str": "CCn1c(SCC(=O)Nc2ccc(OC)c(OC)c2)nnc1-c1c[nH]c2ccccc12", "recorded-value": "1.56% [with zVAD 20 µM] (inactive)"}

The record that follows has no viability rescue shown yet.
Look up and report measured viability rescue for this entry: COCCCNC(=O)c1ccc2c(c1)ncn2-c1ccccc1OC
13.6% (inactive)

###

# assay-explanation: rescue of L929 cells from zVAD death – primary screen (AID 1377);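 further: 0% = zVAD with DMSO and 100% = DMSO alone without zVAD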
# recorded-conditions: L929 zVAD necroptosis rescue, ATP luminescence, 24 h, at 10 µM, hits give high values; with zVAD 60 µM unless noted
The whole screen tested about 220,000 compounds, of which about 830 (0.38%) were called active. The sample as a whole holds a higher share of actives than the screen did.
assay-readout: viability rescue

Known viability rescue results, listed for orientation:
{"compound": "CN(C)S(=O)(=O)c1ccc(NC(=O)COC(=O)Cn2[nH]c(=O)c3ccccc3c2=O)cc1", "recorded-value": "0.01% (inactive)"}
{"compound": "CSc1nc2c(c(=O)[nH]1)C(c1cccc(Cl)c1Cl)CC(=O)N2 (centres undefined)", "recorded-value": "0.3% (inactive)"}
{"compound": "CC1=NNC(=O)C1CC(=O)N/N=C/c1ccncc1 (centres undefined)", "recorded-value": "-0.36% (inactive)"}
{"compound": "C/C(=C/C(=O)N1CCN(C)CC1)C(=O)O", "recorded-value": "0.98% (inactive)"}
{"compound": "CCOc1ccc(NC(=O)c2ccc(CSc3nnnn3C)cc2)cc1", "recorded-value": "1.6% (inactive)"}
{"compound": "CCCOC(=O)c1c(NC(=O)c2cnn3c2NC(c2ccccc2)CC3C(F)(F)F)sc2c1CCCC2 (centres undefined)", "recorded-value": "7.75% [with zVAD 20 µM] (inactive)"}

Item Cc1nccn1CC(=O)N/N=C/c1ccc(O)c(O)c1 : provide viability rescue
0.09% [with zVAD 20 µM] (inactive)

Dear colleague, please send me the reported viability rescue for CNC(=S)N/N=C/c1cn(Cc2ccc(C)cc2)c2ccccc12 when you can.
0.34% (inactive)

Annotate the compound Cc1ccccc1NC(=O)NC1(C(=O)N2CCCC2)CCCCC1 with its measured viability rescue.
4.41% (inactive)

# credit: PubChem BioAssay AID1377
